System: T1, SARS-CoV-2 S1 (Acro) (SARS-CoV-2, UniProt P0DTC2 16-685)
T1 construct: also called Acro S1
Procedure Text: Carterra SPR
Experimental Readout: Kd (nM)
Use nM as the unit, but write only the number.

{"Binder": "7-37 (VHH) VHH: EVQLVESGGGLVQPGGSLRLSCAASGSTLSINAMGWFRQAPGKEREFVAGITRSGSVTNYADSVKGRFTISADNSKNTAYLQMNSLKPEDTAVYYCAADGVPEYSDYASGPVWGQGTLVTVSS", "Kd / nM": 21.6}
{"Binder": "7-30 (VHH, not shown: a dimerising Fc or GST) VHH: EVQLVESGGGLVQPGGSLRLSCAASGRTFSMHAMGWFRQAPGKEREFVASISSQGRTNYADSVKGRFTISADNSKNTAYLQMNSLKPEDTAVYYCAAEVRNGSDYLPIDWGQGTLVTVSS", "Kd / nM": 48.7}
{"Binder": "3-31 (VHH, also called 3-31_ExpiCHO) VHH: EVQLVESGGGLVQPGGSLRLSCAASGSTFSINAMGWFRQAPGKEREFVAGITSSGGYTNYADSVKGRFTISADNSKNTAYLQMNSLKPEDTAVYYCAADGVPEYSDYASGPVWGQGTLVTVSS", "Kd / nM": 21}
{"Binder": "6A-63 (VHH) VHH: EVQLVESGGGLVQPGGSLRLSCAASGQTFNMGWFRQAPGKEREFVAAIGSGGSTSYADSVKGRFTISADNSKNTAYLQMNSLKPEDTAVYYCWRLGNDYFDYWGQGTLVTVSS", "Kd / nM": 46.4}
{"Binder": "6A-3 (VHH) VHH: EVQLVESGGGLVQPGGSLRLSCAASGFTFSPSWMGWFRQAPGKEREFVATINEYGGRNYADSVKGRFTISADNSKNTAYLQMNSLKPEDTAVYYCARVDRDFDYWGQGTLVTVSS", "Kd / nM": 31.5}

Kd for 7-26 (VHH) VHH: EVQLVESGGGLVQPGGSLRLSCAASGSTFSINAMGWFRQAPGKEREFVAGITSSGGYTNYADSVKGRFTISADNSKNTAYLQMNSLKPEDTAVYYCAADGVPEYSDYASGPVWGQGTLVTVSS ?
24.8
